Attribution: ChEMBL document CHEMBL1201862

System: OVCAR-8
Test: NCI tumour cell line growth inhibition, 48 h
Calls of active or inactive are those of the source. Rule as the data show it: active = GI50 up to about 1.1 µM and inactive = higher.
endpoint name: GI50

Some compounds with known GI50 results, for comparison:
{"compound": "O=C1NC(c2cccc3ccccc23)Nc2ccc(O)cc21 (stereo unspecified)", "GI50": "36.9 µM (inactive)"}
{"compound": "CCC(=O)N/N=C(\\C=C\\c1cccc(O)c1)c1sc(Nc2ccc(C)cc2[N+](=O)[O-])nc1C", "GI50": "71.3 µM (inactive)"}
{"compound": "CC(=O)NC(C)(C)C1CCC(C)CC1 (stereo unspecified)", "GI50": "> 100 µM (inactive)"}

Query string: Return reported GI50; argument: `O=C(O)c1cc(NC2=C(Cl)C(=O)c3c(O)ccc(O)c3C2=O)ccc1O`
Result string: > 10 µM (inactive)

Query string: I am curious: what GI50 value has been reported for `O=C(NC/C(Cl)=C/Cl)Nc1cccc2c1CCCC2` ?
Result string: > 100 µM (inactive)

Query string: Record request: GI50 value, item CCOc1ccc(NC2=NC(=O)C(CC(=O)Nc3ccccc3[N+](=O)[O-])S2)cc1 (stereo unspecified)
Result string: > 100 µM (inactive)

###

# GI50 listing for each entry below
Tested on: HT-29
Test: NCI tumour cell line growth inhibition, 48 h
Calls of active or inactive are those of the source. Rule as the data show it: active = GI50 up to about 1.1 µM and inactive = higher.

{"compound": "Oc1cc(C2OCCCO2)cc(O)c1O", "GI50": "> 100 µM (inactive)"}
{"compound": "C[C@@H](Cl)[C@H]1CCCN(Cc2ccc(Br)cc2)C1", "GI50": "> 12.5 µM (inactive)"}
{"compound": "CC1=CC(c2ccccc2)n2c(nc3cc4ccccc4cc32)N1 (configuration not stated)", "GI50": "> 100 µM (inactive)"}

Query string: // lookup GI50 | system=HT-29 | key= `CCC(=O)N/N=C(\C=C\c1cccc(O)c1)c1sc(Nc2ccc(C)cc2[N+](=O)[O-])nc1C`
Result string: 18.6 µM (inactive)

Query string: Report GI50 for CCCCCCC(/C=N/O)C(C)(O)CCC (configuration not stated) tested on HT-29.
Result string: > 100 µM (inactive)

Query string: What measured GI50 is associated with NC(=S)N1N=C(c2ccc3c(c2)CCC3)CC1c1ccccc1 (configuration not stated) on HT-29?
Result string: 16.4 µM (inactive)

Query string: Under HT-29: GI50 value of COc1cc(C2c3cc4c(cc3OC(N3CCCCC3)C2C)OCO4)cc(OC)c1OC (configuration not stated) ?
Result string: 3.04 µM (inactive)

Query string: Give the reported GI50 for CCOC(=O)c1cc2c3c(c(C(C)=O)c(O)c2[nH]1)N(CC(C)CC)CC3 (configuration not stated) (system: HT-29).
Result string: > 100 µM (inactive)

Query string: Request: GI50, test system HT-29, entry CC1CCCc2c(-c3ccc(Cl)cc3)nc(N)c(C#N)c21 (configuration not stated)
Result string: 30.6 µM (inactive)

Query string: Recorded GI50 for CCNC1C2(CCCCC2)NC(=O)C12CCCCC2 (configuration not stated) with HT-29, please?
Result string: > 100 µM (inactive)

Query string: Notebook: pull reported GI50 for HT-29, entry `Cc1ccc(C)n2c1nc1ccc3ccccc3c12`
Result string: > 100 µM (inactive)

Query string: Under HT-29: GI50 value of O=C(O)C1C2CCC(O2)C1C(=O)N1CCCCC1 (configuration not stated) ?
Result string: 4.07 µM (inactive)

###

System: SF-295
Test: NCI tumour cell line growth inhibition, 48 h
Active and inactive are the calls of the source. Rule as the data show it: active = GI50 up to about 1.1 µM and inactive = higher. Square brackets hold non-standard residues; d marks the D form. Peptide text beside a SMILES is read from it. * marks the point of attachment. Boc = CC(C)(C)OC(=O)*; OBn = c1ccc(CO*)cc1
Answer with one of the outcomes given here: active, inactive

{"compound": "Cn1ccc(C(=O)NCCN(CCNC(=O)c2ccn(C)c(=O)c2O)CCNC(=O)c2cccc(=O)n2O)c(O)c1=O", "label value": "inactive"}

Query string: # fetch the recorded call for CC1(C)OCC(/C=C\C(O)CC2(C)OCCO2)CO1 (configuration not stated) here
Result string: inactive

Query string: # fetch the recorded call for CC1(C)CC(=O)C2=C(C1)C(c1ccccc1Cl)C1C(=O)CC(C)(C)CC1(O)O2 (configuration not stated) here
Result string: inactive

Query string: Please indicate how the test categorized COc1cc2cc(C(=O)N3CC(CCl)c4c3cc([N+](C)(C)Cc3ccc([N+](=O)[O-])n3C)c3ccccc43)[nH]c2c(OC)c1OC (configuration not stated) .
Result string: inactive

Query string: Identify the outcome logged in this assay for the compound shown: COC(=O)C1OC(Oc2cc(O)c3c(=O)cc(-c4ccc(O)cc4)oc3c2)C(O)C(O)C1O (configuration not stated)
Result string: inactive

Query string: // return assay outcome for C[C@@H](NC(=O)CNC(=O)OC(C)(C)C)C(=O)N[C@@H](Cc1ccccc1)C(=O)OCc1ccccc1 (Boc-Gly-[dA]-Phe-OBn)
Result string: inactive

###

System: LXFL 529
Assay: NCI tumour cell line growth inhibition, 48 h
Activity calls are given as the source filed them. Rule as the data show it: active = GI50 up to about 1.1 µM and inactive = higher.
Classes to choose from: 1 for active, 0 for inactive

{"molecule": "CCOC(=O)NN(C(=O)OCC)C(C(=O)c1ccc(Cl)cc1)=C1NCCN1", "label value": 0}
{"molecule": "COC1=CCC=C(C[C@@H]2NCCc3cc(OC)c(OC)cc32)C1", "label value": 0}
{"molecule": "COC(=O)C1CCc2c1c(=O)n1c([nH]c3ccccc31)c2C#N (stereo not given)", "label value": 0}
{"molecule": "COc1ccc(OC)c2c3c(ccc12)C(c1ccccc1)OC3=O (stereo not given)", "label value": 0}
{"molecule": "COc1cc(/C=C\\c2ccccn2)cc(OC)c1OC", "label value": 0}
{"molecule": "CO[C@@]12CC(=O)/C(=C(O)\\C=C\\c3ccccc3)C(=O)[C@]1(OC)Cc1ccccc1O2", "label value": 0}
{"molecule": "CCOC(=O)C(Cc1c[nH]c2cc([N+](=O)[O-])ccc12)NS(=O)(=O)c1ccc2ccccc2c1 (stereo not given)", "label value": 0}
{"molecule": "CCC(=O)N/N=C(\\C=C\\c1cccc(O)c1)c1sc(Nc2ccc(C)cc2[N+](=O)[O-])nc1C", "label value": 0}

Query string: # outcome recorded in this test, key = CCNC1C2(CCCCC2)NC(=O)C12CCCCC2 (stereo not given)
Result string: 0

Query string: So what was the verdict on `Cc1ccc(C)c2sc3cc(=O)ccc-3nc12` in this test?
Result string: 0

Query string: Fill in: this test's call for `C/N=c1\ss/c(=N\C(=S)N(C)C)n1C` is ___
Result string: 0

Query string: # fetch the recorded call for N#CC(NNC(=O)Cc1ccccc1)c1ccc(O)cc1 (stereo not given) here
Result string: 0

Query string: Please let me know the test result on file for CCOc1ccccc1NC(=O)C(=O)C1C(=O)Nc2ccccc2[S+]1[O-] (stereo not given) .
Result string: 0

###

In this section, each of the compounds is paired with its reported GI50.
Test system: HCC 2998
Experiment: NCI tumour cell line growth inhibition, 48 h
Activity calls are given as the source filed them. Cut-off read from the data, not from the text of the source: active = GI50 up to about 1.1 µM and inactive = higher.

{"compound": "S=C(N/N=C(\\C(=N/NC(=S)N1CCCCC1)c1ccccn1)c1ccccn1)N1CCCCC1", "reported value": "26.3 µM (inactive)"}
{"compound": "COc1ccccc1NC(=O)C(=O)Cc1cnc2ccccc2n1", "reported value": "> 100 µM (inactive)"}
{"compound": "OCCOCn1nc(-c2ccccc2)nc1-c1cnccn1", "reported value": "> 100 µM (inactive)"}
{"compound": "CSC(=N)NNC(=O)CCC(=O)Nc1ccccc1C(F)(F)F", "reported value": "> 100 µM (inactive)"}
{"compound": "CCC(=O)Nc1ccc(N2C(=O)/C(=C/c3ccc(O)c(OC)c3)N=C2c2ccccc2)cc1", "reported value": "21 µM (inactive)"}

Query string: Quick check: GI50 of COc1cccc(C2c3cc4c(cc3OC(NNc3ccccc3)C2C)OCO4)c1O (stereo not given) ?
Result string: 2.08 µM (inactive)

Query string: Would you mind telling me what GI50 value was observed for COc1ccc(OC)c2c3c(ccc12)C(c1ccccc1)OC3=O (stereo not given) ?
Result string: > 100 µM (inactive)

Query string: Looking for the measured GI50 of CCC12C=CCN3CCC4(c5cc(C6(C(=O)OC)CCCCCc7c6[nH]c6ccccc76)c(OC)cc5N(C)C4C(O)(C(=O)OC)C1OC(C)=O)C32 (stereo not given) , can you help?
Result string: 2.04 µM (inactive)

Query string: Look up GI50 for this compound: `CCN(CC)CCN(C(=O)c1ccc(F)cc1)c1ccccc1N`
Result string: > 10 µM (inactive)

Query string: I'd like to know its GI50. The compound in question is `CC(=O)NCCCCN(CCCNC(C)=O)C(=O)CNS(=O)(=O)c1cccc2c(N(C)C)cccc12`
Result string: > 100 µM (inactive)
